The reported measurements were obtained from PubChem BioAssay.

Listing: inhibition of selected compounds
# Test name: inhibition of Brca1/Bard1 split-luciferase complementation, confirmation, counter-screen for Mdm2/MdmX interaction inhibitor project, luminescence, single concentration (AID 504668)
# Reported conditions: Brca1/Bard1 bimolecular luciferase complementation counterscreen, at 8 µM, hits give high values
The source made the active and inactive calls. The rule behind the calls is not given here.

Exam item: Tell me the measured inhibition of CC(=O)/C(C#N)=C1\NC(=O)C(Cc2ccc(C)c(C)c2)S1 (stereo not drawn) , please.
Marked response: 32.1% (active)

Exam item: What about this compound? O=C(NC(Cc1c[nH]c2ccccc12)C(=O)Nc1ccc(OC(F)(F)F)cc1)c1cccs1 (stereo not drawn)
Marked response: 25.7% (active)

Exam item: Next compound up: COC(=O)Cc1ccc(NC(=O)c2ccc(C(C)(C)C)cc2)cc1
Marked response: 28.9% (active)

Exam item: Now consider O=C(COc1ccc(F)cc1Cl)Nc1nc(-c2ccccn2)cs1 and answer again.
Marked response: 33.8% (active)

Exam item: For CN(C)CCCNC(=O)/C(=C\c1ccc(-c2ccc(Br)cc2)o1)NC(=O)c1ccccc1 then?
Marked response: 29.2% (active)

Exam item: Also, O=C(NCCCO)c1c(O)c2cccc3c2n(c1=O)CCC3 please.
Marked response: 24.6% (active)

Exam item: Now give it for O=C(Nc1cccc2[nH]ncc12)c1ccc(F)cc1 too.
Marked response: 25% (active)

Exam item: Okay, and Cc1cc(C)c(S(=O)(=O)N2CCCCC2CCNC(=O)C(=O)NC2CC2)c(C)c1 (stereo not drawn) ?
Marked response: 25.4% (active)

Exam item: Now try CCCCN(Cc1ccco1)C(=O)c1cc2c(=O)[nH]c3ccc(C)cc3c2s1 .
Marked response: 23.8% (active)
